- Measurement Target: T1, human NPRA (human, UniProt P16066 33-1061)
- T1 sequence (looked up): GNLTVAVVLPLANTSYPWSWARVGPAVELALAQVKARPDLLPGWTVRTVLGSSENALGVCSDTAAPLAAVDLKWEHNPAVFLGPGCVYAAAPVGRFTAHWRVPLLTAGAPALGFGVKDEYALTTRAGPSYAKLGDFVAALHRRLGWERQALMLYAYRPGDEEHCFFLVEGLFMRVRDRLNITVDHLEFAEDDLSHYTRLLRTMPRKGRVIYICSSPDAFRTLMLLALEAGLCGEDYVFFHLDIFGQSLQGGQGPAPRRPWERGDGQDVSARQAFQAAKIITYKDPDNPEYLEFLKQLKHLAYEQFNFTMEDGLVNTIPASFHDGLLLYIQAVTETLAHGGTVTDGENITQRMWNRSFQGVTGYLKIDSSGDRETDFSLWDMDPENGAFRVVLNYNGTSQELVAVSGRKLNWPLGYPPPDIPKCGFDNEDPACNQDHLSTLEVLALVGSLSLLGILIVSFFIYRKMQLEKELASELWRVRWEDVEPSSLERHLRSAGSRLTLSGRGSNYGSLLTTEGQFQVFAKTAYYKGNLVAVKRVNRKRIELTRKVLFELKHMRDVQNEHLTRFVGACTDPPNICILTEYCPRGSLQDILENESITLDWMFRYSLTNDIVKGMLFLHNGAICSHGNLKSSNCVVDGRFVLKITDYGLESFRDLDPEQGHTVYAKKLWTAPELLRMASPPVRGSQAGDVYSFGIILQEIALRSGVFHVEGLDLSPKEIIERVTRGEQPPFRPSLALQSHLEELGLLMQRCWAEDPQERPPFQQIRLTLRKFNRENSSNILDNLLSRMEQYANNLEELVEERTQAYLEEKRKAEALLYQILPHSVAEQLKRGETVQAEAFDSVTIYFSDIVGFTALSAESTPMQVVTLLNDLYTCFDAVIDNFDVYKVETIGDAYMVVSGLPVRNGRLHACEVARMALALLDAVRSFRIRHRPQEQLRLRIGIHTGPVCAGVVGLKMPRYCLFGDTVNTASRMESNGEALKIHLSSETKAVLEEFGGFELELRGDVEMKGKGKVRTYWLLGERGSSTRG
- Procedure Summary: cell-based or functional assay
Numbered stars: 1 amine (or outer) side, 2 acyl side, 3 side chain; on linkers, the order of the positions; unused ones are H or OH. Bridge positions count the residues as written; N and C are the ends. Square brackets hold non-standard residues; d marks the D form. * marks the point of attachment. thioacetal = thioacetal linkage between two cysteines (intrachain bond at the bracketed Cys); C20 diacid = O=C(O)CCCCCCCCCCCCCCCCCCC(=O)*; γGlu = O=C(O)[C@H](CCC(=O)[*:2])N[*:1]; Dap = NC[C@H](N)C(=O)O
Everything with cGMP Assay (EC50, pM) w/Casein, hNPRA lower than 2000 pM is 0.0; everything else, including exactly 2000 pM, is 1.0.

- Binder: "EKXRSSCFGKRIDRIGHYSGLGCPSFRHGSPSSGAPPPS (N-terminus acylated with HOOC-(CH2)18-CO-(γGlu)-; (AEEA)8 after EKEKEKG; βAla; thioacetal linkage between the two bracketed Cys; C-terminal amide) [HOOC-(CH2)18-CO-(γGlu)-EKEKEKG-(AEEA)8-EK-βAla-RSS[CFGKRIDRIGHYSGLGC]PSFRHGSPSSGAPPPS-NH2]"
  Label Class: 0.0
- Binder: "SXRRSSCFGKRIDRIGHYSGLGCPSFRHGSPSSGAPPPS (N-terminus acylated with HOOC-(CH2)18-CO-(γGlu)-; (AEEA)8 after EKEKEKG; 4Pal; thioacetal linkage between the two bracketed Cys; C-terminal amide) [HOOC-(CH2)18-CO-(γGlu)-EKEKEKG-(AEEA)8-S-4Pal-RRSS[CFGKRIDRIGHYSGLGC]PSFRHGSPSSGAPPPS-NH2]"
  Label Class: 0.0
- Binder: "{C20 diacid-γGlu}-EKEKEKGEKPRSSCFGG[Dap]IDRIGHQSGLGCPSFRHGSPSSGAPPPS-NH2 (bridge 14-30 via thioacetal) [HOOC-(CH2)18-CO-(γGlu)-EKEKEKGEKPRSS[CFGG-Dap-IDRIGHQSGLGC]PSFRHGSPSSGAPPPS-NH2]"
  Label Class: 1.0
- Binder: "{C20 diacid-γGlu}-EKEKEKGEKPRSSCFGG[Dap]IDRIGHYSGLGCPSFRHGSPSSGAPPPS-NH2 (bridge 14-30 via thioacetal) [HOOC-(CH2)18-CO-(γGlu)-EKEKEKGEKPRSS[CFGG-Dap-IDRIGHYSGLGC]PSFRHGSPSSGAPPPS-NH2]"
  Label Class: 1.0

Task: Hi, just wondering whether SXXRSSCFGGRIDRIGHYSGLGCPSFRHGSPSSGAPPPS (N-terminus acylated with HOOC-(CH2)18-CO-(γGlu)-; (AEEA)6 after EKEKEKG; 4Pal; βAla; thioacetal linkage between the two bracketed Cys; C-terminal amide) [HOOC-(CH2)18-CO-(γGlu)-EKEKEKG-(AEEA)6-S-4Pal-βAla-RSS[CFGGRIDRIGHYSGLGC]PSFRHGSPSSGAPPPS-NH2] shows cGMP Assay (EC50, pM) w/Casein, hNPRA of 2000 pM or higher.
Output: 0.0
